# ASSAY DETAILS: Antioxidant activity assessed as DPPH radical scavenging activity at 2 mM after 30 mins
# Type: physicochemical
# APPLIED CONDITIONS: 0.5 h, 2000 µM
Reported inhibition (INH) values are given for each entry in this list.
ASSAY READOUT: inhibition (INH) (%)

[[record]]
compound = "O=C1O[C@H]([C@@H](O)CO)C(O)=C1O [ASCORBIC ACID]"
result = 74.9

[[record]]
compound = "O=C(/C=C/c1ccc(O)c(O)c1/C(=C/c1ccc(O)c(O)c1)C(=O)O[C@@H](Cc1ccc(O)c(O)c1)C(=O)O)O[C@@H](Cc1ccc(O)c(O)c1)C(=O)O"
result = 53.6

[[record]]
compound = "O=C(/C=C/c1ccc(O)c2c1[C@@H](C(=O)O[C@@H](Cc1ccc(O)c(O)c1)C(=O)O)[C@H](c1ccc(O)c(O)c1)O2)O[C@@H](Cc1ccc(O)c(O)c1)C(=O)O"
result = 84.3

[[record]]
compound = "O=C(/C=C/c1ccc(O)c2c1[C@@H](C(=O)O[C@H](Cc1ccc(O)c(O)c1)C(=O)O)[C@H](c1ccc(O)c(O)c1)O2)O[C@H](Cc1ccc(O)c(O)c1)C(=O)O"
result = 84.7


---

Reported fold change (FC) values are given for each entry in this list.
# SYSTEM TESTED: NAD(P)H dehydrogenase [quinone] 1 (Mus musculus)
# ASSAY DETAILS: Induction of NQO1 activity in mouse Hepa-1c1c7 cells at 10 uM after 24 hrs by MTT assay relative to control
# Assay type: cell-based
ASSAY READOUT: fold change (FC)

[[record]]
entry_smiles = "O=C(/C=C/c1ccc(O)c2c1[C@@H](C(=O)O[C@@H](Cc1ccc(O)c(O)c1)C(=O)O)[C@H](c1ccc(O)c(O)c1)O2)O[C@@H](Cc1ccc(O)c(O)c1)C(=O)O"
result = 1.2

[[record]]
entry_smiles = "O=C(/C=C/c1ccc(O)c2c1[C@@H](C(=O)O[C@H](Cc1ccc(O)c(O)c1)C(=O)O)[C@H](c1ccc(O)c(O)c1)O2)O[C@H](Cc1ccc(O)c(O)c1)C(=O)O"
result = 1

[[record]]
entry_smiles = "O=C(/C=C/c1ccc(O)c(O)c1/C(=C/c1ccc(O)c(O)c1)C(=O)O[C@@H](Cc1ccc(O)c(O)c1)C(=O)O)O[C@@H](Cc1ccc(O)c(O)c1)C(=O)O"
result = 1.4

[[record]]
entry_smiles = "O=c1cc(-c2ccc(Br)cc2)oc2ccccc12"
result = 2.9


---

# ASSAY DETAILS: Cytotoxicity against mouse Hepa-1c1c7 cells assessed as cell viability at 20 uM after 24 hrs by crystal violet staining-based assay
# APPLIED CONDITIONS: read-out: Activity
Reported viability at 24 h, 20 µM values are given for each entry in this list.
ASSAY READOUT: viability at 24 h, 20 µM (%)

[[record]]
entry_smiles = "O=C(/C=C/c1ccc(O)c2c1[C@@H](C(=O)O[C@H](Cc1ccc(O)c(O)c1)C(=O)O)[C@H](c1ccc(O)c(O)c1)O2)O[C@H](Cc1ccc(O)c(O)c1)C(=O)O"
result = 79

[[record]]
entry_smiles = "O=C(/C=C/c1ccc(O)c2c1[C@@H](C(=O)O[C@@H](Cc1ccc(O)c(O)c1)C(=O)O)[C@H](c1ccc(O)c(O)c1)O2)O[C@@H](Cc1ccc(O)c(O)c1)C(=O)O"
result = 82

[[record]]
entry_smiles = "O=C(/C=C/c1ccc(O)c(O)c1/C(=C/c1ccc(O)c(O)c1)C(=O)O[C@@H](Cc1ccc(O)c(O)c1)C(=O)O)O[C@@H](Cc1ccc(O)c(O)c1)C(=O)O"
result = 88

